target.desc: recombinant 6xHis-tagged calmodulin (UniProt P0DP23 1-149)
assay.method.text: ITC
Where no end group is shown, it is not given here. MBP = maltose binding protein fusion
Provide the recorded Ka for the entries that follow.
Dear colleague, please send the value followed by its unit.

For every record below, what is its Ka?
1. MBP-fused human Nox5β dehydrogenase domain residues 605-719 (domain or fragment) SLLTKLEMDQAEEAQYGRFLELHMYMTSALGKNDMKAIGLQMALDLLANKEKKDSITGLQTRTQPGRPDWSKVFQKVAAEKKGKVQVFFCGSPALAKVLKGHCEKFGFRFFQENF
2. MBP-fused human Nox5β dehydrogenase domain residues 665-719 (domain or fragment, cysteine pairing not given here) {MBP}-TRTQPGRPDWSKVFQKVAAEKKGKVQVFFCGSPALAKVLKGHCEKFGFRFFQENF
3. MBP-fused human Nox5β dehydrogenase domain residues 584-719 (domain or fragment, UniProt Q96PH1-4 584-719, looked up) KLHKVDFIWINRDQRSFEWFVSLLTKLEMDQAEEAQYGRFLELHMYMTSALGKNDMKAIGLQMALDLLANKEKKDSITGLQTRTQPGRPDWSKVFQKVAAEKKGKVQVFFCGSPALAKVLKGHCEKFGFRFFQENF
4. MBP-fused human Nox5β dehydrogenase domain residues 528-719 (domain or fragment) PTRRIFASEHAVLIGAGIGITPFASILQSIMYRHQKRKHTCPSCQHSWIEGVQDNMKLHKVDFIWINRDQRSFEWFVSLLTKLEMDQAEEAQYGRFLELHMYMTSALGKNDMKAIGLQMALDLLANKEKKDSITGLQTRTQPGRPDWSKVFQKVAAEKKGKVQVFFCGSPALAKVLKGHCEKFGFRFFQENF

**A:**
1: 894000 M⁻¹; 2: 1.39e+06 M⁻¹; 3: 933000 M⁻¹; 4: 2.71e+06 M⁻¹
